Assay: self-splicing fitness, log relative to wild type (ln ratio); higher = more splicing; Tetrahymena group I intron in knt gene, E. coli kanamycin selection, DiMSum; sequences stand for … in CUCUCU…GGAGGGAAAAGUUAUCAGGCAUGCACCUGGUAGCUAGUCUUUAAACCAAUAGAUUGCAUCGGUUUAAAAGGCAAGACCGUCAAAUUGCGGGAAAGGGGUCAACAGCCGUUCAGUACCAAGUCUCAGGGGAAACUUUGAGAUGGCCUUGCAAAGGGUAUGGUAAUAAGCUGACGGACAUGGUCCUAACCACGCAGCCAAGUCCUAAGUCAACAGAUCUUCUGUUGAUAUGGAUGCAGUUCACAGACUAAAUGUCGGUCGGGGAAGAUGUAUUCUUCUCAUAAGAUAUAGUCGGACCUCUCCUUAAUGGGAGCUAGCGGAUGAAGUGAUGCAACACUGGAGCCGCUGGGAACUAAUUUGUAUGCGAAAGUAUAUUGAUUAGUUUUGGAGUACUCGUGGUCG;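 also: selection with 25 µg/mL kanamycin versus none on LB agar overnight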
Conditions: 30 °C
Measure: self-splicing fitness (ln)

seq_string=AAUGAGCAAUAUUACGUAGA observed_value=-2.46
seq_string=UGUGAGCAAUAUUACGCGGU observed_value=-3.67
seq_string=CACCAGCAAUAUUACGGGAU observed_value=-3.34
seq_string=UACAAGCAAUAUUACGUUGU observed_value=-3.58
seq_string=UUUAAGCAAUAUUACGGAGA observed_value=-2.18
seq_string=GGAAAGCAAUAUUACGUAAG observed_value=-1.87
seq_string=AUGAAGCAAUAUUACGUGUG observed_value=-1.18
seq_string=UACCAGCAAUAUUACGAAGC observed_value=-3.64
seq_string=CAUCAGCAAUAUUACGCCAA observed_value=-1.99
seq_string=AGUAAGCAAUAUUACGUCGU observed_value=-2.12
seq_string=GAAAAGCAAUAUUACGAUCU observed_value=-0.472
seq_string=CCCGAGCAAUAUUACGGUUA observed_value=-2.05
seq_string=CGGCAGCAAUAUUACGCGCU observed_value=-4.1
seq_string=GUAGAGCAAUAUUACGGCGC observed_value=-0.386
seq_string=AGGUAGCAAUAUUACGGGAA observed_value=-2.69
seq_string=UUCGAGCAAUAUUACGUGAU observed_value=-1.8
seq_string=UUUAAGCAAUAUUACGGUUC observed_value=-3.56
seq_string=UACCAGCAAUAUUACGAACC observed_value=-3.08
seq_string=CUUAAGCAAUAUUACGGGCA observed_value=-3.03
seq_string=AAUUAGCAAUAUUACGUCCU observed_value=-0.344
seq_string=AUAAAGCAAUAUUACGGGCU observed_value=-0.992
seq_string=CAUUAGCAAUAUUACGUGGA observed_value=-3.35
seq_string=UAUCAGCAAUAUUACGGAAA observed_value=-0.825
seq_string=GUAAAGCAAUAUUACGACCU observed_value=0.443
seq_string=AUACAGCAAUAUUACGUUUC observed_value=-3.38
seq_string=UGUCAGCAAUAUUACGAGUG observed_value=-1.07
seq_string=UAGGAGCAAUAUUACGUAGG observed_value=-3.28
seq_string=CAAAAGCAAUAUUACGUUAU observed_value=-3.96
seq_string=GUUGAGCAAUAUUACGGGUU observed_value=-3.57
seq_string=UCCAAGCAAUAUUACGAGCC observed_value=-2.51
seq_string=AGGUAGCAAUAUUACGGGUA observed_value=-2.35
seq_string=GUCUAGCAAUAUUACGCGCG observed_value=-1.36
seq_string=AAUAAGCAAUAUUACGUGUU observed_value=-3.01
seq_string=AAGCAGCAAUAUUACGUGAC observed_value=-3.33

These entries and their values trace back to the supplement of paper PMC7877785.
